Experimental target: T1, FLT-1 IgG (UniProt P17948 27-758)
T1 construct: Construct only cited from Park et al. 1994; also called FLT-IgG; FLT-1 receptor-IgG chimera; not shown: IgG part of the chimera (captured by anti-human IgG Fc)
T1 sequence (P17948 27-758): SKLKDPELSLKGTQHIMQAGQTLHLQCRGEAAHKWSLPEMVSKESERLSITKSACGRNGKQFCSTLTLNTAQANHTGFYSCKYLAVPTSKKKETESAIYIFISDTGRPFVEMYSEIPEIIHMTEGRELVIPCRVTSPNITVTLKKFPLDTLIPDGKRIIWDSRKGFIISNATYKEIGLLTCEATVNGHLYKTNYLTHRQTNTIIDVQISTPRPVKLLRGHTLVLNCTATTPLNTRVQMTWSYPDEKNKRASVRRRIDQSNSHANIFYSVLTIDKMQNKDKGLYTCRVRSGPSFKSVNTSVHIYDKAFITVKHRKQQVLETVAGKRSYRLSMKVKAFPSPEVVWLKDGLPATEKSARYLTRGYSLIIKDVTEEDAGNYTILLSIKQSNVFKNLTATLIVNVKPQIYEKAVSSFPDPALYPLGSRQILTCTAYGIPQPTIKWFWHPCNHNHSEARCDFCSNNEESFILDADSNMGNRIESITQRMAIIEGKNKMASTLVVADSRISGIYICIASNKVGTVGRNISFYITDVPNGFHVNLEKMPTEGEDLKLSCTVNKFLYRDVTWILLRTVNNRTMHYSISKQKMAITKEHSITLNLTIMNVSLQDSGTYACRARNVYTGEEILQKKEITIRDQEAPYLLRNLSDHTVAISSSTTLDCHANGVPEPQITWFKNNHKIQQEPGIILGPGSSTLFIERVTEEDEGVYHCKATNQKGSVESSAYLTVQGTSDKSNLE
Assay summary: competition with 125I-VEGF165 for FLT-1-IgG, radioligand plate assay, no heparin

Binder | IC50 / nM
H11A, H12A, E13A VEGF (ligand, VEGF165 mutant from 293 cells, conditioned medium) APMAEGGGQNAAAVVKFMDVYQRSYCHPIETLVDIFQEYPDEIEYIFKPSCVPLMRCGGCCNDEGLECVPTEESNITMQIMRIKPHQGQHIGEMSFLQHNKCECRPKKDRARQENPCGPCSERRKHLFVQDPQTCKCSCKNTDSRCKARQLELNERTCRCDKPRR | 0.02
H99A, K101A VEGF (ligand, VEGF165 mutant from 293 cells, conditioned medium) APMAEGGGQNHHEVVKFMDVYQRSYCHPIETLVDIFQEYPDEIEYIFKPSCVPLMRCGGCCNDEGLECVPTEESNITMQIMRIKPHQGQHIGEMSFLQANACECRPKKDRARQENPCGPCSERRKHLFVQDPQTCKCSCKNTDSRCKARQLELNERTCRCDKPRR | 0.03
E42N, E44S VEGF (ligand, N-linked carbohydrate at position 42 (apparently glycosylated), Neo-glycosylation control mutant from 293 cells, conditioned medium) APMAEGGGQNHHEVVKFMDVYQRSYCHPIETLVDIFQEYPDNISYIFKPSCVPLMRCGGCCNDEGLECVPTEESNITMQIMRIKPHQGQHIGEMSFLQHNKCECRPKKDRARQENPCGPCSERRKHLFVQDPQTCKCSCKNTDSRCKARQLELNERTCRCDKPRR | 0.013
E67A VEGF (ligand, VEGF165 mutant from 293 cells, conditioned medium) APMAEGGGQNHHEVVKFMDVYQRSYCHPIETLVDIFQEYPDEIEYIFKPSCVPLMRCGGCCNDEGLACVPTEESNITMQIMRIKPHQGQHIGEMSFLQHNKCECRPKKDRARQENPCGPCSERRKHLFVQDPQTCKCSCKNTDSRCKARQLELNERTCRCDKPRR | 0.008

Data origin, for the record: patent US7005505
